# System: PC-3 prostate
# Assay text: NCI-60 one-dose screen, 48 h (100 = growth as untreated, 0 = no growth, -100 = all killed)
# Run conditions: 10 µM unless noted
Compounds without any hit were thinned out: in the full panel of roughly 83,000, 20% have a hit. Active and inactive are the calls of the source. The calls were made as follows: active = growth percent below 10; inactive = the rest.
Measured endpoint: growth

Compound: O=C1Cc2c(sc3c(F)cccc23)C(c2ccccc2[N+](=O)[O-])N1 (stereo not given)
Reading: 100% (inactive)
--
Compound: Nc1cc(C(=O)O)[nH]c(=S)n1
Reading: 99.8% (inactive)
--
Compound: O=S(=O)(NCCCNc1nccc(-c2c(-c3cccc(F)c3)nc3occn23)n1)c1cccc2ccccc12
Reading: 18.1% (inactive)
--
Compound: O=C(N/N=C/c1c(Cl)cccc1Cl)c1cccc(Nc2ccnc(C(F)(F)F)c2)c1
Reading: 77% (inactive)
--
Compound: O=C(CCCSc1nc(-c2ccccc2)cc(-c2ccccc2)n1)NO
Reading: 26.2% (inactive)
--
Compound: O=C(Nc1cc(F)cc2cccnc12)c1cnc(N2CCNCC2)cn1
Reading: 63% (inactive)
--
Compound: COc1ccc2nc3cc(Cl)ccc3c(Nc3ccc(O)c(CN4CCCC4)c3)c2c1
Reading: 24.2% (inactive)
--
Compound: COc1ccc(C(C(=O)O)c2ccc(OC)cc2)cc1
Reading: 101% (inactive)
--
Compound: CC1(C)C(=O)/C(=C\c2cccnc2)C[C@]2(C)[C@H]3CC[C@@H]4[C@H]5[C@H](C(=O)/C=C/c6cccnc6)CC[C@]5(C(=O)O)CC[C@@]4(C)[C@]3(C)CC[C@@H]12
Reading: -38.4% [100 µM] (active)
--
Compound: CC(=O)Nc1ccc2nc3ccc(NC(C)=O)cc3[n+](-c3ccccc3)c2c1
Reading: 104% (inactive)

* * *

# Test system: A498 renal
# Assay text: NCI-60 one-dose screen, 48 h
# Run conditions: 10 µM unless noted
This is part of a sample that, as a whole, favours compounds with a hit. Of some 83,000 tested, about 20% had one in any assay. The source made the active and inactive calls. Rule for the calls: active = growth percent below 10; inactive = the rest.
Classes used: T = active, F = inactive

Compound: CC(C)=CC/C=C(/C)[C@H]1CC[C@]2(C)[C@@H]1CC[C@@H]1[C@@]3(C)CC/C(=N/O)C(C)(C)[C@@H]3CC[C@]12C
System: A498 renal
Cat: F

Compound: Clc1ccc(N2CCN(CCCN3CCN(c4cccc(Cl)c4)CC3)CC2)cc1
System: A498 renal
Cat: F

Compound: C1=C[C@H]2O[C@@H]1c1ccc3[nH]ccc3c12
System: A498 renal
Cat: F

Compound: Cc1ccc(S(=O)(=O)n2cc(C(=O)C(=O)N3CCCCC3)c3ccccc32)cc1
System: A498 renal
Cat: F

Compound: O=C(Nc1ccc(Oc2ccc(F)cc2)c(Cl)c1)c1cccnn1
System: A498 renal
Cat: F

Compound: Cc1cccc(C[C@H](NC(=O)Nc2ccc(Cl)cc2F)C(=O)N[C@@H]2C(=O)N3C[C@H](O)C[C@H]3C(=O)N3CCCC[C@H]3C(=O)N[C@@H](C)C(=O)N3C[C@H](C)C[C@H]3C(=O)O[C@H]2C)c1
System: A498 renal
Cat: T

Compound: CCCCN(CC)CC(CC)Nc1cc(OC)cc2cccnc12 (stereo not drawn)
System: A498 renal
Cat: F

Compound: Cc1cnc([C@]23CC[C@@H](C)[C@H](C)[C@H]2C2=CC[C@@H]4[C@@]5(C)Cc6c([nH]c7ccccc67)C(C)(C)[C@@H]5CC[C@@]4(C)[C@]2(C)CC3)o1
System: A498 renal
Cat: F

* * *

# System: NCI-H522 lung
# Assay text: NCI-60 one-dose screen, 48 h (100 = growth as untreated, 0 = no growth, -100 = all killed)
# Run conditions: 10 µM unless noted
Compounds without any hit were thinned out: in the full panel of roughly 83,000, 20% have a hit.

Molecule: COc1ccc(CC(C#N)c2ccc(Cl)cc2)cc1 (stereo not given)
System: NCI-H522 lung
growth / %: 78.1

Molecule: CN(Cc1cccc(C(F)(F)F)c1)C(=O)[C@@H](CC(=O)N1CCC(N2CCCCC2)CC1)N1C(=O)[C@@H](N2C(=O)OC[C@@H]2c2ccccc2)[C@H]1/C=C/c1ccccc1
System: NCI-H522 lung
growth / %: 96.1

Molecule: O=C(CCCSc1nc(-c2ccccc2)cc(-c2ccccc2)n1)NO
System: NCI-H522 lung
growth / %: -9.12

Molecule: CCCC(NC(=O)OCc1ccccc1)C(=O)O (stereo not given)
System: NCI-H522 lung
growth / %: 16.2

Molecule: CCCCCCCCCCCCCC[n+]1cccc(C(N)=O)c1
System: NCI-H522 lung
growth / %: -35.3

Molecule: CCn1cc(-c2[nH]c(=S)ncc2-c2ccc(Cl)cc2)c(-c2ccc(Br)cc2)n1
System: NCI-H522 lung
growth / %: 58.5

Molecule: COc1ccc(C=C2c3ccccc3-c3ccccc32)cc1
System: NCI-H522 lung
growth / %: 13.7

Molecule: COc1cc(C(=O)/C=C/c2c(-c3ccc(F)cc3)nc3sccn23)cc(OC)c1OC
System: NCI-H522 lung
growth / %: -18.2

Molecule: O=[N+]([O-])c1cc([N+](=O)[O-])c(NN=C(c2ccc(O)cc2)c2ccc(O)cc2)cc1Cl
System: NCI-H522 lung
growth / %: -55.1

Molecule: CCCC[C@@H](C=O)NC(=O)[C@H](CC(C)C)NC(=O)[C@H](CC(C)C)NC(=O)OCc1ccccc1
System: NCI-H522 lung
growth / %: -0.189

* * *

# Test system: OVCAR-8 ovarian
# Assay text: NCI-60 one-dose screen, 48 h (100 = growth as untreated, 0 = no growth, -100 = all killed)
# Run conditions: 10 µM unless noted
This is part of a sample that, as a whole, favours compounds with a hit. Of some 83,000 tested, about 20% had one in any assay.
Reported values of growth for individual entries
Measured endpoint: growth (%)

Compound: C#C[C@]1(O)CC[C@H]2[C@@H]3CC=C4c5nc(N)sc5CC[C@]4(C)[C@H]3CC[C@@]21C
System: OVCAR-8 ovarian
Unit: %
Reading: 85.3

Compound: C=CC1=C(C)C2=NC1=CC1=NC(=CC3=C(C)C4=C(O)C(C(=O)O)C(=C5NC(=C2)C(C)C5CCC(=O)O)C4=N3)C(CC)=C1C (stereo unspecified)
System: OVCAR-8 ovarian
Unit: %
Reading: 107

Compound: COc1ccc2c(c1)C(C)Cc1c(ncnc1-n1cnc3ccccc31)N2C (stereo unspecified)
System: OVCAR-8 ovarian
Unit: %
Reading: 17.8

Compound: Brc1ccc(-c2nnc3c4[nH]ccc4ncn23)cc1
System: OVCAR-8 ovarian
Unit: %
Reading: 95.3

Compound: CCOC(=O)c1nc2c3ccccc3ccn2c1C(=O)OC
System: OVCAR-8 ovarian
Unit: %
Reading: 100

Compound: CC(=O)n1cc(C=O)c2ccccc21
System: OVCAR-8 ovarian
Unit: %
Reading: 86.7

Compound: CCOC(=O)C(C(C)=O)c1nc2sc3cc(Cl)c(Cl)cc3n2c(=O)c1C#N (stereo unspecified)
System: OVCAR-8 ovarian
Unit: %
Reading: 92.8

Compound: N#Cc1c(N2CCOCC2)nc(=S)[nH]c1-c1ccco1
System: OVCAR-8 ovarian
Unit: %
Reading: 80.3

Compound: COc1ccc(/C=C/C=C\C(=O)c2ccc(-n3ccnc3)cc2)cc1
System: OVCAR-8 ovarian
Unit: %
Reading: 86.4

Compound: Cc1ccccc1OC(=O)c1cccc(Cl)c1
System: OVCAR-8 ovarian
Unit: %
Reading: 112

Compound: Cc1cccc(C[C@H](NC(=O)Nc2ccc(Cl)cc2F)C(=O)N[C@@H]2C(=O)N3C[C@H](OC(=O)CCN(C)C)C[C@H]3C(=O)N3CCCC[C@H]3C(=O)N[C@@H](C)C(=O)N3C[C@H](C)C[C@H]3C(=O)O[C@H]2C)c1
System: OVCAR-8 ovarian
Unit: %
Reading: 16.8

Compound: O=C1Nc2ccccc2/C1=C/C(=O)c1ccc(N2CCCC2)cc1
System: OVCAR-8 ovarian
Unit: %
Reading: -12.7

Compound: CC(C)CCSc1nc(N)nc2nc[nH]c12
System: OVCAR-8 ovarian
Unit: %
Reading: 94.1

Compound: CCC(Br)(CC)C(=O)c1ccc(OCC(=O)O)c(Cl)c1Cl
System: OVCAR-8 ovarian
Unit: %
Reading: 97.4

Compound: Cc1cccc([N+](=O)[O-])c1I
System: OVCAR-8 ovarian
Unit: %
Reading: 98.2

Compound: O=C(O)CC1CCCCC1c1ccccc1 (stereo unspecified)
System: OVCAR-8 ovarian
Unit: %
Reading: 106

Compound: CC(C)[C@H]1COC(=O)N1[C@@H]1C(=O)N([C@@H](CCC(=O)N2CCN(C3CCCC3)CC2)C(=O)N[C@@H]2CCCc3ccccc32)[C@@H]1/C=C/c1cccc(Cl)c1
System: OVCAR-8 ovarian
Unit: %
Reading: 74.5

Compound: COc1ncc(-c2ccc3nc(N)n(-c4ccccc4C(F)(F)F)c(=O)c3c2)cc1S(=O)(=O)Nc1ccc(F)cc1F
System: OVCAR-8 ovarian
Unit: %
Reading: 50.1

Compound: CCOC(=O)c1nn(C2CCCCO2)c2ccc(NC(=O)CN3CCCC3)cc12 (stereo unspecified)
System: OVCAR-8 ovarian
Unit: %
Reading: 101

Compound: Cc1ccc(NCCN2CCCCC2)c2c(=O)c3ccccc3sc12
System: OVCAR-8 ovarian
Unit: %
Reading: 29.2

Compound: Nc1cccc2c1C(=O)c1cccc(NC(=O)c3ccccc3)c1C2=O
System: OVCAR-8 ovarian
Unit: %
Reading: 34.4

The measured values listed here are drawn from PubChem BioAssay (NCI).
